# target-or-system: recombinant α1d-adrenoceptor (Homo sapiens, UniProt P25100)
# Sequence (P25100 whole entry): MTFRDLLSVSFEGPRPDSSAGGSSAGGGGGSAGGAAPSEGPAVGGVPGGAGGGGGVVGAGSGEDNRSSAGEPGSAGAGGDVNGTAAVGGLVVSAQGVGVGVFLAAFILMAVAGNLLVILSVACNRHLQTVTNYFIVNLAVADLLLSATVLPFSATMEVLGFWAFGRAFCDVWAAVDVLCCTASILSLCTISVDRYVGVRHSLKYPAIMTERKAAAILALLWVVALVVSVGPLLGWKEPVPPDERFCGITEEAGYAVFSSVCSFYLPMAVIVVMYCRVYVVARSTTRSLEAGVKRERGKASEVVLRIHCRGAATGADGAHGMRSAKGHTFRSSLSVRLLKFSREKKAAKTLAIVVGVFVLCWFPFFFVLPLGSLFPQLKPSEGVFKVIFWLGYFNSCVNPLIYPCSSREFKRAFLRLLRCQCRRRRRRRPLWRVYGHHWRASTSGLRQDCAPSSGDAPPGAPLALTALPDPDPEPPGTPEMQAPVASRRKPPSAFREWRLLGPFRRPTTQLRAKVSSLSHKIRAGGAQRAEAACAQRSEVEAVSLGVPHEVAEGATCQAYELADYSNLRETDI
# assay-method-text: Radioligand binding assay ([3H]prazosin) on cloned α1-adrenoceptor subtype, membranes of transfected cells
# setup-conditions: read-out: Affinity (Ki, nM) α1d; recombinant receptor, [3H]prazosin
We begin with a simple list: items and their reported Ki.

smiles-structure	target-or-system	Ki
Cc1onc(-c2ccccc2)c1C(=O)NCCCN1CCN(c2ccc(F)cc2OCC(F)(F)F)CC1	recombinant α1d-adrenoceptor (Homo sapiens, UniProt P25100)	18.9 nM
COc1ccc(Cl)cc1N1CCN(CCCNC(=O)c2c(-c3ccccc3)noc2C)CC1	recombinant α1d-adrenoceptor (Homo sapiens, UniProt P25100)	2.72 nM
